- Test system: T1, Duffy Antigen Receptor for Chemokines (DARC) (human, UniProt Q16570 1-336)
- T1 construct: whole, on cells
- T1 sequence (looked up): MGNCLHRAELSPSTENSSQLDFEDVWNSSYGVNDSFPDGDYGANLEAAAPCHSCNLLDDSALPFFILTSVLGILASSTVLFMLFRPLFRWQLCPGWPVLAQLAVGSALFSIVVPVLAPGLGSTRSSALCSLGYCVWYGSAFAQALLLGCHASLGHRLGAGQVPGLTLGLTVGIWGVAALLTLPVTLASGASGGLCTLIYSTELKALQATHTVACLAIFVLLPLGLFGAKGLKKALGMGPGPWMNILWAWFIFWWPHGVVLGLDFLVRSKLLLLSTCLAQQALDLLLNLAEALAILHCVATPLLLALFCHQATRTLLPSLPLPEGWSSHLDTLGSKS
- Measurement notes: competition binding analysis using red blood cells
pKd: −log10 of the molar value.
Assay endpoint: pKd

Ask | Fill in the blank: the reported pKd of SYRRITSSKCPKEAV (synthetic linear L-form peptide; also called Pep2[MCP1]; Pep2(1-15)[MCP1]) [peptide 2(1-15)[MCP-1]] is ____.
Reply | > 6.30
